The origin of these recorded values is ChEMBL document CHEMBL5724914.

Assay: The drug is tested on Z-025 corresponding to rabbit gut metagenome with ENA study accession number: PRJEB37062 and ENA sample accession number: ERS12561824 for biotransformation under anaerobic condition. The drug concentrations were measured over 9 timepoints collected between 0 and 24 hours of incubation by liquid-chromatography-coupled mass spectrometry (LC–MS); also: call rule not given here
Conditions: 2 µM
observable: Bacterial Biotransformation

Field request: Bacterial Biotransformation | item: COc1cc2c(c(OC)c1OC)-c1ccc(OC)c(=O)cc1[C@@H](NC(C)=O)CC2
Compound NOT metabolized

How about this molecule: Cc1cn([C@H]2C[C@H](N=[N+]=[N-])[C@@H](CO)O2)c(=O)[nH]c1=O
Compound metabolized

Here is the next molecule: CCOC(=O)[C@H](CCc1ccccc1)N[C@@H](C)C(=O)N1[C@H](C(=O)O)C[C@H]2CCCC[C@@H]21
Compound NOT metabolized

Lookup COC(=O)[C@H]1[C@H]2C[C@@H]3c4[nH]c5cc(OC)ccc5c4CCN3C[C@H]2C[C@@H](OC(=O)c2cc(OC)c(OC)c(OC)c2)[C@@H]1OC
Compound NOT metabolized

Same lookup for O=c1[nH]c2ccccc2n1CCCN1CCC(n2c(=O)[nH]c3cc(Cl)ccc32)CC1 , please.
Compound NOT metabolized

---
# lookup: Bacterial Biotransformation of O=c1n(CCCN2CCN(c3cccc(Cl)c3)CC2)nc2ccccn12
Compound NOT metabolized

# iterate: NC12CC3CC(CC(C3)C1)C2
Compound metabolized

Then this molecule: N#Cc1ccc(C(c2ccc(C#N)cc2)n2cncn2)cc1
Compound NOT metabolized

Try this molecule next: CCCCCCOC(=O)/N=C(/N)c1ccc(NCc2nc3cc(C(=O)N(CCC(=O)OCC)c4ccccn4)ccc3n2C)cc1.CS(=O)(=O)O [DABIGATRAN ETEXILATE MESYLATE]
Compound NOT metabolized

Item: CCN(CC)CC#CCOC(=O)C(O)(c1ccccc1)C1CCCCC1.Cl (configuration not stated) [OXYBUTYNIN CHLORIDE]
Compound NOT metabolized

Quick one: CN1C(=O)CC(C)(c2ccccc2)C1=O (configuration not stated) [METHSUXIMIDE]
Compound NOT metabolized

Query Cc1ccnc2c1NC(=O)c1cccnc1N2C1CC1 next
Compound NOT metabolized

Okay, and CC(=O)OCC(=O)[C@@]1(O)[C@@H](C)C[C@H]2[C@@H]3CCC4=CC(=O)C=C[C@]4(C)[C@@]3(F)[C@@H](O)C[C@@]21C [BETAMETHASONE ACETATE] ?
Compound metabolized

Try the molecule COc1ccc2[nH]c([S+]([O-])Cc3ncc(C)c(OC)c3C)nc2c1 (configuration not stated)
Compound metabolized

Next record, please: O=C(Nc1ccccc1)OCC(CN1CCCCC1)OC(=O)Nc1ccccc1 (configuration not stated)
Compound metabolized

Cool, now CC(C)c1c(C(=O)Nc2ccccc2)c(-c2ccccc2)c(-c2ccc(F)cc2)n1CC[C@@H](O)C[C@@H](O)CC(=O)O
Compound NOT metabolized

Queued: O=C(CCCN1CCC(O)(c2ccc(Cl)cc2)CC1)c1ccc(F)cc1
Compound NOT metabolized

Quick one: CCc1nc(N)nc(N)c1-c1ccc(Cl)cc1
Compound NOT metabolized

Also check CCC(=O)NCC[C@@H]1CCc2ccc3c(c21)CCO3
Compound NOT metabolized

Request: CCOc1ccc(NC(C)=O)cc1
Compound NOT metabolized

Also, Nc1ccc(/N=N/c2ccccc2)c(N)n1 please.
Compound metabolized

// repeat for Cc1ccc(/C(=C\CN2CCCC2)c2ccccn2)cc1 and report
Compound NOT metabolized

Subsequent entry: CC(C)OC(=O)C(C)(C)Oc1ccc(C(=O)c2ccc(Cl)cc2)cc1 [FENOFIBRATE]
Compound metabolized

Would you kindly repeat that for C[C@@H]1C[C@H]2[C@@H]3CCC4=CC(=O)C=C[C@]4(C)[C@@]3(F)[C@@H](O)C[C@]2(C)[C@@]1(O)C(=O)CO ?
Compound NOT metabolized

###

Settings: human gut metagenome, 24 h, 2 µM
Where a SMILES comes first, the peptide text is derived from it. [ ]: non-standard residue; d: D form. pGlu = O=C1CC[C@@H](C(=O)O)N1; Thz = O=C(O)[C@@H]1CSCN1
observable: Bacterial Biotransformation

Data request, read-out Bacterial Biotransformation, for CCN(CC)CCOC(=O)C(Cc1cccc2ccccc12)CC1CCCO1.O=C(O)C(=O)O (stereo not given) [NAFRONYL OXALATE]
Compound NOT metabolized

Moving on to CC(=O)CC(c1ccccc1)c1c(O)c2ccccc2oc1=O (stereo not given)
Compound metabolized

Entry COc1ccc2[nH]c([S+]([O-])Cc3ncc(C)c(OC)c3C)nc2c1 (stereo not given) please
Compound metabolized

Same for CN/C(=N/CCSCc1nc[nH]c1C)NC#N
Compound metabolized

With those in mind, consider the next molecule.
Sample O=C1CC[C@@H](C(=O)N2CSC[C@H]2C(=O)O)N1 [PIDOTIMOD] ([pGlu]-[Thz]-OH) — what was its Bacterial Biotransformation?
Compound NOT metabolized

###

Settings: human gut metagenome, 24 h, 2 µM
observable: Bacterial Biotransformation

Example entries and their recorded answers appear below.
# Bacterial Biotransformation lookup, item Cc1cc2c(cc1S(N)(=O)=O)S(=O)(=O)CCC2
Compound NOT metabolized

Try CC(C)NCC(O)c1ccc(NS(C)(=O)=O)cc1 (centres undefined) next.
Compound NOT metabolized

Now the compound O=C(O)COCCN1CCN(C(c2ccccc2)c2ccc(Cl)cc2)CC1 (centres undefined)
Compound metabolized

Okay, and CCCCC(=O)N(Cc1ccc(-c2ccccc2-c2nnn[nH]2)cc1)[C@H](C(=O)O)C(C)C ?
Compound metabolized

What do you get for O=P(O)(O)O.c1ccc(CN(CC2=NCCN2)c2ccccc2)cc1 [ANTAZOLINE PHOSPHATE] ?
Compound NOT metabolized

Another compound to check: O=C1[C@H](CC[C@H](O)c2ccc(F)cc2)[C@@H](c2ccc(O)cc2)N1c1ccc(F)cc1
Compound NOT metabolized

What do we get for Cc1ccc(/C(=C\CN2CCCC2)c2ccccn2)cc1 ?
Compound NOT metabolized

COc1ccc2c3c1O[C@H]1C[C@@H](O)C=C[C@@]31CCN(C)C2 , same question.
Compound metabolized

Continue with the next compound.
# query: Bacterial Biotransformation of entry CN1CCN(C2=Nc3cc(Cl)ccc3Nc3ccccc32)CC1
Compound NOT metabolized

###

Details: human gut metagenome, 24 h, 2 µM
observable: Bacterial Biotransformation

Would you mind telling me what Bacterial Biotransformation value was observed for CC[C@@H](CO)NC(=O)[C@@H]1C=C2c3cccc4c3c(cn4C)C[C@H]2N(C)C1.O=C(O)/C=C\C(=O)O [METHYSERGIDE MALEATE] ?
Compound NOT metabolized

// query: CCCc1nn(C)c2c(=O)[nH]c(-c3cc(S(=O)(=O)N4CCN(C)CC4)ccc3OCC)nc12.O=C(O)CC(O)(CC(=O)O)C(=O)O [SILDENAFIL CITRATE]
Compound NOT metabolized

// next record CC(C)NCC(O)c1ccc(NS(C)(=O)=O)cc1 (centres undefined) [SOTALOL]
Compound NOT metabolized

###

Conditions: human gut metagenome, 24 h, 2 µM
observable: Bacterial Biotransformation

Examples with answers:
Quick one: Bacterial Biotransformation of OCCN1CCN(CCCN2c3ccccc3Sc3ccc(C(F)(F)F)cc32)CC1 [FLUPHENAZINE] ?
Compound metabolized

Lookup COc1ccc2c(c1OC)C(=O)O[C@@H]2[C@H]1c2c(cc3c(c2OC)OCO3)CCN1C [NOSCAPINE]
Compound metabolized

Request: COc1cc2c(c(OC)c1OC)-c1ccc(OC)c(=O)cc1[C@@H](NC(C)=O)CC2 [COLCHICINE]
Compound NOT metabolized

One more compound: C=CCN1CC[C@]23c4c5ccc(O)c4O[C@H]2C(=O)CC[C@@]3(O)[C@H]1C5 [NALOXONE]
Compound NOT metabolized

Can you check CCN(CC)CCOCCOC(=O)C1(c2ccccc2)CCCC1.O=C(O)CC(O)(CC(=O)O)C(=O)O [CARBETAPENTANE CITRATE] next?
Compound metabolized

Similarly, CCOc1ccc(NC(C)=O)cc1 [PHENACETIN] ?
Compound NOT metabolized

// query: OCCOCCN1CCN(C2=Nc3ccccc3Sc3ccccc32)CC1 [QUETIAPINE]
Compound NOT metabolized

Query Cc1ccc(-c2nc3ccc(C)cn3c2CC(=O)N(C)C)cc1 [ZOLPIDEM] next
Compound NOT metabolized

Ok, now CO[C@]12C[C@@H](COC(=O)c3cncc(Br)c3)CN(C)[C@@H]1Cc1cn(C)c3cccc2c13 [NICERGOLINE]
Compound NOT metabolized

Next record, please: CC(=O)OCC(=O)[C@@]12N=C(C)O[C@@H]1C[C@H]1[C@@H]3CCC4=CC(=O)C=C[C@]4(C)[C@H]3[C@@H](O)C[C@@]12C [DEFLAZACORT]
Compound metabolized

---
Bacterial Biotransformation lookup needed for Cc1cc2c(cc1S(N)(=O)=O)S(=O)(=O)CCC2 , thanks.
Compound NOT metabolized

Then Cc1nc2n(c(=O)c1CCN1CCC(c3noc4cc(F)ccc34)CC1)CCCC2O (configuration not stated) [PALIPERIDONE] ?
Compound metabolized

Quick one: COCCc1ccc(OCC(O)CNC(C)C)cc1.COCCc1ccc(OCC(O)CNC(C)C)cc1.O=C(O)C(O)C(O)C(=O)O (configuration not stated) [METOPROLOL TARTRATE]
Compound NOT metabolized

Would you mind doing Cc1nc(-c2ccc(OCC(C)C)c(C#N)c2)sc1C(=O)O [FEBUXOSTAT] as well?
Compound metabolized

What do you have for CC(C)OC(=O)C(C)(C)Oc1ccc(C(=O)c2ccc(Cl)cc2)cc1 [FENOFIBRATE] ?
Compound metabolized

What do you have for CN(C)CC(c1ccc(O)cc1)C1(O)CCCCC1.O=C(O)CCC(=O)O (configuration not stated) [DESVENLAFAXINE SUCCINATE] ?
Compound NOT metabolized

Again, but for CCCCC1=NC2(CCCC2)C(=O)N1Cc1ccc(-c2ccccc2-c2nnn[nH]2)cc1 [IRBESARTAN]
Compound metabolized
